Tested on: KM12 colon
method_description: NCI tumour cell line growth inhibition, 48 h
TGI by entry:
property_label: TGI

[
  {
    "molecule": "CCN1C(=O)N(CC)C2C1NN=c1s/c(=C\\c3cnc(C)n3C)c(=O)n12 (stereo not drawn)",
    "property_label": "TGI",
    "test_value": "> 100 µM"
  },
  {
    "molecule": "Cc1ccc(C(=O)C(C)N)cc1C (stereo not drawn)",
    "property_label": "TGI",
    "test_value": "> 100 µM"
  },
  {
    "molecule": "OCC1(CNc2cc(Cl)ncn2)CCC1",
    "property_label": "TGI",
    "test_value": "> 100 µM"
  },
  {
    "molecule": "Nc1ncnc2c1ncn2COC/C=C/I",
    "property_label": "TGI",
    "test_value": "> 100 µM"
  },
  {
    "molecule": "CCN1CCC(O)(/C=C/c2ccc(Cl)cc2)C(C(=O)/C=C/c2ccc(Cl)cc2)C1 (stereo not drawn)",
    "property_label": "TGI",
    "test_value": "29.5 µM"
  },
  {
    "molecule": "CCOC(=O)/C=C1\\C[C@H](NC(=O)OCc2ccccc2)C(=O)N1CC(=O)OCC",
    "property_label": "TGI",
    "test_value": "> 100 µM"
  },
  {
    "molecule": "CSc1nc(Cl)c2c(n1)Sc1nc3ccccc3n1N=C2",
    "property_label": "TGI",
    "test_value": "> 100 µM"
  },
  {
    "molecule": "COC(=O)/C=C/N1CC1",
    "property_label": "TGI",
    "test_value": "> 10 µM"
  },
  {
    "molecule": "COc1ccc2c(c1)NC(=O)CN2c1nc(C)nc2ccccc12",
    "property_label": "TGI",
    "test_value": "> 100 µM"
  },
  {
    "molecule": "C[Si](C)(C)C#CCOC=C1CC1",
    "property_label": "TGI",
    "test_value": "> 100 µM"
  },
  {
    "molecule": "Cc1cccc(/C=C2\\CCCCCC2=O)c1",
    "property_label": "TGI",
    "test_value": "> 100 µM"
  },
  {
    "molecule": "O=C1NC(=O)C2(CCc3ccc(N(CCCl)CCCl)cc32)N1 (stereo not drawn)",
    "property_label": "TGI",
    "test_value": "> 84.1 µM"
  },
  {
    "molecule": "O=C1C=C(OCC=C(Cl)Cl)C(=O)c2ccccc21",
    "property_label": "TGI",
    "test_value": "> 90.7 µM"
  }
]
